Data provenance: the supplement of paper PMC9732359

- Protocol details: protein stability index of a GFP-peptide fusion (yeast GPS) (PSI 1-4); higher = more stable; sorted into four equal gates, so the index is relative within each strain
- Details: san1∆
Decide using protein stability index: a value greater than or equal to 3 is TRUE, a smaller one is FALSE.

Please review the entries below; each comes with its answer.
INSERT INTO assay_data (ordered_residues, qualitative_label) VALUES
  ('DGHYIEENSQGNILDFN [REC8]', 'FALSE'),
  ('SELQRLSHENNVMLEKI [RPT5]', 'FALSE'),
  ('TTVQVAEEAIVNAMRVL [PRE4]', 'FALSE'),
  ('LGDMENNLEKYPFRYKT [RTT102]', 'TRUE');

-- ask In plain terms: is recorded protein stability index at least 3 for LSINEKDFVTMAIEIIN [YCG1] ?
-- reply FALSE

----------
- Protocol details: protein stability index of a GFP-peptide fusion (yeast GPS) (PSI 1-4); higher = more stable; sorted into four equal gates, so the index is relative within each strain
- Details: san1∆
Recorded protein stability index, one value per entry.

INSERT INTO measurements (ordered_residues, observed_result) VALUES
  ('DYKTAFSYFFESFESYH [RPN6]', 2.59);

-- ask Which value of protein stability index has been reported for NVETYEQILQWVTEVLG [BRR2] in the records?
-- reply 1.77

-- ask Fill blank: measured protein stability index of the sequence HSQFMKDLKDDSIYTKP [YJL039C/NUP192] is ____.
-- reply 3.02

-- ask Fill in the blank: the reported protein stability index of SGNTNGAGSAFGFSSSG [YOR098C/NUP1] is ____.
-- reply 3.07

-- ask Please give the measured protein stability index for this sequence: NKLVMKSKFNKSNRSYS [GAL11]
-- reply 3.01

-- ask # get_value(readout='protein stability index', item= RRKFDPSSSENVMTPRE [UBP6] )
-- reply 2.45

-- ask Given the sequence KSMGRKCFDDIEPHIFD [YCG1] , what is its reported protein stability index?
-- reply 3.29

----------
Listed next: entries and their corresponding protein stability index.
- Protocol details: protein stability index of a GFP-peptide fusion (yeast GPS) (PSI 1-4); higher = more stable; sorted into four equal gates, so the index is relative within each strain
- Details: san1∆
I only need the number, thanks.

Consider the worked cases shown below.
INSERT INTO measurements (ordered_residues, property, observed_result) VALUES
  ('GVARIYASFNDTFVHVT [RPS14B]', 'protein stability index', 1.92),
  ('EMKIGSIESKLEEHKNH [SMC1]', 'protein stability index', 2.96),
  ('HVINVGKTWEKLVLAAR [RPS0A]', 'protein stability index', 3.39),
  ('LGHKELKVRKGHIAKLM [RPB2]', 'protein stability index', 1.97),
  ('PDILATDLIREKTMMTF [YCS4]', 'protein stability index', 2.86),
  ('GPSATDPETTATQKESL [RGR1]', 'protein stability index', 1.66),
  ('IMNVLSEGFEPTFSTHA [PRP8]', 'protein stability index', 2.57),
  ('LETILEEFRNLAALNVW [SSN2]', 'protein stability index', 2.52);

-- ask Please give the measured protein stability index for this sequence: SLRRQVKKLEIQQHARY [RPL43A]
-- reply 2.96

-- ask # get_value(readout='protein stability index', item= KFHSELQYLDKHIKNLE [RPN12] )
-- reply 2.84

-- ask Which protein stability index reading was recorded for the sequence RNSKLLNTKSIQIDEET [MCD1] ?
-- reply 3.18

-- ask Reported protein stability index for GGADQVTRTQQWSMVAQ [SWI1] : what is it?
-- reply 3.03

-- ask Any idea what protein stability index was measured for ITVHAPLLPIVEELMKK [SNU114] ?
-- reply 2.52

-- ask Can you share its protein stability index? I mean this sequence: HTPTIASYLTPLLEAKK [SSN2]
-- reply 3.01

-- ask Which value of protein stability index has been reported for YQMHIKTSKDIAVLRSK [FAS1] in the records?
-- reply 2.3

----------
- Protocol details: protein stability index of a GFP-peptide fusion (yeast GPS) (PSI 1-4); higher = more stable; sorted into four equal gates, so the index is relative within each strain
- Details: ubr1∆
Returns Condition met if the recorded protein stability index is greater than or equal to 3, and Condition not met otherwise.

Solved cases below.
INSERT INTO measurements (ordered_residues, qualitative_label) VALUES
  ('IIKQTVHPIPDVAFADG [YMR129W/POM152]', 'Condition not met'),
  ('RLNNVFVIGEQGKPYIS [RPS4A]', 'Condition not met'),
  ('LGSKKELGISLEHPYGK [SNU114]', 'Condition met'),
  ('GKIVSQRGKWNLKYLDN [RGR1]', 'Condition not met'),
  ('YKKIPLLGPTLEDHTPP [QCR10]', 'Condition not met');

Here's the next entry for you.
-- ask Quick check, protein stability index >= 3? GVLLPTRIKLLLTKNVS [RPS6A]
-- reply Condition not met

----------
- Protocol details: protein stability index of a GFP-peptide fusion (yeast GPS) (PSI 1-4); higher = more stable; sorted into four equal gates, so the index is relative within each strain
- Details: ubr1∆
Property: protein stability index

Examples with their reported protein stability index follow.
INSERT INTO measurements (ordered_residues, observed_result) VALUES
  ('AGGGESDSALILMYKGF [UBP6]', 3.35),
  ('QFEIPISDDDDSALRYS [POP4]', 3.16),
  ('MVLVQDLLHPTAASEAR [RPS27A]', 3.17),
  ('GAQFSRSYDLTRHQNTI [RPN4]', 2.53),
  ('NSTNSNTTKPAFGGLNF [YJL041W/NSP1]', 3.47),
  ('EKVRDYENSISKDLRSV [IRR1]', 2.03);

-- ask Which measured protein stability index value corresponds to LISRMIFIATQLEKKIR [BRR2] ?
-- reply 2.03

-- ask Quick one: protein stability index of THEQWSNIQRNVLFLRL [SRP72] ?
-- reply 2.45

-- ask Using the record for MVMFMHMAKGLYYGSYR [COB] , report its protein stability index.
-- reply 1.13

-- ask GET /values?readout=protein stability index&item= GSSNKAVVQTVKGLLNT [YJL039C/NUP192]
-- reply 3.07

-- ask Query: protein stability index; subject: TELVDKANIFQVIKNEV [SSN2]
-- reply 3.16

-- ask Look up protein stability index: VLSINPDMYERKVENIR [MED7]
-- reply 2.79

-- ask Quick one: protein stability index for ASAGSKEGASTNWDDHA [YMR153W/NUP53] ?
-- reply 3.42

-- ask Fill in the blank: the reported protein stability index of PAFKPTEKKFTKEQYAA [RPL5] is ____.
-- reply 3.04

----------
- Protocol details: protein stability index of a GFP-peptide fusion (yeast GPS) (PSI 1-4); higher = more stable; sorted into four equal gates, so the index is relative within each strain
- Details: pdr5∆
Property: protein stability index
# print the numeric value only

Here is how some sequences turned out for protein stability index.
INSERT INTO results (ordered_residues, property, observed_result) VALUES
  ('SPQKFETNLQTFLPPLL [ECM29]', 'protein stability index', 2.95),
  ('TGAGKGSIGAEVLQGLL [FAS2]', 'protein stability index', 3.56);

-- ask Which protein stability index is listed for GSVIQTHIAESAKEIAK [MCD1] ?
-- reply 2.89

-- ask // query protein stability index value for entry LIRLQMEKLDAKLNHLK [SWI3]
-- reply 3.04

-- ask I'd like to know its protein stability index. The sequence in question is DKRFSGSLKLPNCPRPN [RPL1A]
-- reply 3.05

-- ask // lookup protein stability index for TNDDSIKNLTVQLSPSN [RGR1]
-- reply 2.79

-- ask // returns reported protein stability index for input SPLNTTTKILGDKILGN [YML103C/NUP188]
-- reply 2.63

----------
- Protocol details: protein stability index of a GFP-peptide fusion (yeast GPS) (PSI 1-4); higher = more stable; sorted into four equal gates, so the index is relative within each strain
- Details: ubr1∆
# reported protein stability index; entries follow
Reply: number alone, nothing else.

INSERT INTO assay_data (ordered_residues, property, observed_result) VALUES
  ('MMCDFGTGNNNKLNFIV [DIB1]', 'protein stability index', 1.6);

-- ask Query: protein stability index; subject: SENRDKFLQEFINLLLN [IRR1]
-- reply 2.21

-- ask Can you look up the measured protein stability index of HVVGRIAEVGNKRWKVD [RRP4] for me?
-- reply 2.67

-- ask Please give the measured protein stability index for this sequence: YYAKKRAFTKKVSSASA [RPL16B]
-- reply 1.41

-- ask Please look up its protein stability index: QLVYKRGFGKINKQRVP [RPL7A]
-- reply 2.85

-- ask Consider the sequence shown here: EKKAASAKQTAPNNSNG [MED7] What is its recorded protein stability index?
-- reply 2.41

-- ask protein stability index for DTVEEKKEEKLNIGKNF [SIR4] ?
-- reply 2.42

-- ask Could you share which protein stability index value was measured for VTNSPLFQTIEKLINNS [ECM29] ?
-- reply 2.92

-- ask Requested field: protein stability index. Item: YRCFAQLELRQLNASIS [RRI2]
-- reply 3.39

-- ask Using the record for EAARICANKYMTTVSGR [RPL10] , report its protein stability index.
-- reply 1.93

-- ask # input sequence: QEDFEVVEEFTPVVLAT [RPS5] ; wanted: its protein stability index
-- reply 2.31

-- ask // protein stability index lookup, key: KRLNFSFVGDYMHDTEL [GRR1]
-- reply 3.22

-- ask What does the data say about its protein stability index? Entry: AINLMGVKNNLLTPKSG [RPO31]
-- reply 2.63

-- ask GET /values?readout=protein stability index&item= GLARKFHNMLQTLYTGD [SSN3]
-- reply 2.79

-- ask Using the record for KSGRINGFHGRLGDLGV [SMC4] , report its protein stability index.
-- reply 3.31
